ENDPOINT_NAME: glass transition temperature (°C)
Give bare numbers, in °C.

*c1ccc(Cc2ccc(N3C(=O)C(Cl)=C(Oc4ccc(C(c5ccc(OC6=C(Cl)C(=O)N(*)C6=O)cc5)(C(F)(F)F)C(F)(F)F)cc4)C3=O)cc2)cc1 (repeat unit) : 189.00

Below are 5 compounds. Give each one its glass transition temperature.
1. *C1C(=O)N(C(C)CC)C(=O)C1* (repeat unit)
2. *Oc1ccc(NC(=O)c2ccc(Oc3ccc(C(=O)Nc4ccc(Oc5ccc(C6(c7ccc(*)cc7)C7CC8CC(C7)CC6C8)cc5)cc4)cc3)cc2)cc1 (repeat unit)
3. *Sc1ccc(Cc2ccc(SC(*)=O)cc2)cc1 (repeat unit)
4. *CC(*)(F)C(=O)OCC(F)(F)C(F)(F)C(F)(F)C(F)(F)F (repeat unit)
5. *c1ccc(-c2ccc(N(*)c3ccc(C(F)(F)F)cc3)cc2)cc1 (repeat unit)

1. 205.00
2. 230.00
3. 117.00
4. 63.00
5. 225.00

Quick one: give me glass transition temperature for each item below, same order please.
1. *CCCCCCCCCCCCCCNC(=O)CCc1ccc(CCC(=O)N*)cc1 (repeat unit)
2. *CC(*)(C)C(=O)OCCCCn1c2ccccc2c2ccccc21 (repeat unit)
3. *c1ccc(Oc2cccc(Oc3ccc(-n4c(=O)c5cc6c(=O)n(*)c(=O)c6cc5c4=O)cc3)c2)cc1 (repeat unit)

1. 85.00
2. 59.20
3. 326.00

Return reported glass transition temperature values for all items listed beneath this line.
1. *CCCCCCOC(=O)NCCCCNC(=O)O* (repeat unit)
2. *C(=O)Nc1ccc(NC(=O)c2ccc3c(c2)C(=O)N(c2ccc(S(=O)(=O)c4ccc(N5C(=O)c6ccc(*)cc6C5=O)cc4)cc2)C3=O)cc1 (repeat unit)
3. *c1ccc(Oc2ccc(C(=O)c3ccc4cc(C(=O)c5ccc(Oc6ccc(-c7nc(-c8ccc(-c9nc(*)c(-c%10ccccc%10)[nH]9)cc8)[nH]c7-c7ccccc7)cc6)cc5)ccc4c3)cc2)cc1 (repeat unit)
4. *Oc1ccc(S(=O)(=O)c2ccc(Oc3ccc(/C=C4\CCCC/C(=C\c5ccc(Oc6ccc(S(=O)(=O)c7ccc(Oc8ccc(C(C)(C)c9ccc(*)cc9)cc8)cc7)cc6)cc5)C4=O)cc3)cc2)cc1 (repeat unit)

1: 16.00; 2: 368.00; 3: 281.00; 4: 188.00

Go through the list and state glass transition temperature for each entry.
1. *Cc1ccc(CSSSS*)cc1 (repeat unit)
2. *c1cccc(C(=O)Nc2ccc(Oc3cccc(Oc4ccc(NC(=O)c5cccc(N6C(=O)c7ccc(-c8cccc9c8C(=O)N(*)C9=O)cc7C6=O)c5)cc4)c3)cc2)c1 (repeat unit)
3. *CC(*)c1cccc(C)n1 (repeat unit)
4. *c1ccc(Oc2cccc(Oc3ccc(N4C(=O)c5cccc(Oc6cccc(Oc7cccc8c7C(=O)N(*)C8=O)c6)c5C4=O)cc3)c2)cc1 (repeat unit)

3.00
253.00
92.00
193.00

Looking for the measured glass transition temperature of *C(=O)c1ccc2c(c1)C(=O)N(c1ccc(C(=O)c3cccc(C(=O)c4ccc(N5C(=O)c6ccc(*)cc6C5=O)cc4)c3)cc1)C2=O (repeat unit) , can you help?
276.00

* * *

ENDPOINT_NAME: glass transition temperature (°C)
Give bare numbers, in °C.

Some molecules with recorded glass transition temperature:
*c1ccc(-c2cc(-c3ccc(OCCCC#N)cc3)cc(-c3ccc(N4C(=O)c5ccc(-c6ccc7c(c6)C(=O)N(*)C7=O)cc5C4=O)cc3)n2)cc1 (repeat unit) : 360.00
*c1cccc(Oc2cccc(Oc3cccc(N4C(=O)c5c(c(-c6ccccc6)c(-c6ccc(Oc7ccc(Oc8ccc(-c9c(-c%10ccccc%10)c%10c(c(-c%11ccccc%11)c9-c9ccccc9)C(=O)N(*)C%10=O)cc8)cc7)cc6)c(-c6ccccc6)c5-c5ccccc5)C4=O)c3)c2)c1 (repeat unit) : 238.00
*C(=O)c1ccc2c(c1)C(=O)N(c1ccc(Oc3cc(C(C)(C)C)c(Oc4ccc(N5C(=O)c6ccc(*)cc6C5=O)cc4)cc3C(C)(C)C)cc1)C2=O (repeat unit) : 288.00
*C(=O)Nc1ccc(NC(=O)c2ccc3c(c2)C(=O)N(c2c(C)cc(C)c(N4C(=O)c5ccc(*)cc5C4=O)c2C)C3=O)cc1 (repeat unit) : 327.00
*CC(O)COc1ccc(O*)cc1 (repeat unit) : 60.00
*c1cccc(Oc2ccc(P(=O)(c3ccccc3)c3ccccc3)c(Oc3cccc(N4C(=O)c5ccc(Oc6ccc(-c7ccc(Oc8ccc9c(c8)C(=O)N(*)C9=O)cc7)cc6)cc5C4=O)c3)c2)c1 (repeat unit) : 227.00

Take each entry in turn and give its glass transition temperature.
1. *Oc1ccc(C2(c3ccc(Oc4ccc(C(=O)c5ccc(C(=O)c6ccc(*)c(C(F)(F)F)c6)cc5)cc4C(F)(F)F)cc3)c3ccccc3-c3ccccc32)cc1 (repeat unit)
2. *CC(*)(C)C(=O)OCCCCC(F)(F)C(F)(F)C(F)(F)C(F)(F)F (repeat unit)
3. *Oc1c(C)cc(*)cc1C(C)CCCCCCCC (repeat unit)
4. *CCCS(=O)(=O)CCCCS(=O)(=O)CCCOC(=O)c1cccc(C(=O)O*)c1 (repeat unit)
5. *O[Si](*)(CCCOCCOCCOC)CCCOCCOCCOC (repeat unit)
6. *CC(*)C(=O)NCCCCCC(=O)O (repeat unit)

1. 229.00
2. 23.00
3. 20.00
4. 65.00
5. -63.40
6. 68.00

Could you report glass transition temperature for every entry in the following list?
1. *Nc1ccc(NC(=O)c2ccc(C(*)=O)cc2)cc1 (repeat unit)
2. *N=P(*)(CC1COCCOCCOCCO1)OCC1COCCOCCOCCO1 (repeat unit)
3. *c1ccc(Oc2ccccc2Oc2ccc(N3C(=O)c4ccc(S(=O)(=O)c5ccc6c(c5)C(=O)N(*)C6=O)cc4C3=O)cc2C(F)(F)F)c(C(F)(F)F)c1 (repeat unit)
4. *C(=O)c1ccc2c(c1)C(=O)N(c1cc(OCCCCCCCC)cc(N3C(=O)c4ccc(*)cc4C3=O)c1)C2=O (repeat unit)
5. *c1ccc(S(=O)(=O)c2ccc(-n3nccc3-c3ccc(-c4ccnn4*)cc3)cc2)cc1 (repeat unit)
6. *CC(*)c1cc(C)ccc1C (repeat unit)

1. 295.00
2. -40.00
3. 255.00
4. 195.00
5. 266.00
6. 143

* * *

I'd appreciate it if you could supply glass transition temperature values for the items below.
Answers are plain numbers, in °C.

Example molecules with recorded glass transition temperature:
*c1cccc(Oc2cccc(Oc3cccc(N4C(=O)C5C6C=CC(C7C(=O)N(*)C(=O)C67)C5C4=O)c3)c2)c1 (repeat unit) : 177.00
*CC(*)OC(=O)c1ccccc1Cl (repeat unit) : 55.8
*c1ccc2c(c1)C(=O)N(c1ccc(Oc3ccc(C(C)(C)c4ccc(Oc5ccc(N6C(=O)c7ccc(C(*)(C(F)(F)F)C(F)(F)F)cc7C6=O)cc5)cc4)cc3)cc1)C2=O (repeat unit) : 246.70
*c1ccc(S(=O)(=O)c2ccc(NC(=O)c3cccc(C(=O)Nc4ccc(S(=O)(=O)c5ccc(-n6c(=O)c7cc8c(=O)n(*)c(=O)c8cc7c6=O)cc5)cc4)c3)cc2)cc1 (repeat unit) : 286.00

Provide each entry's glass transition temperature from the list below.
1. *C1C(*)C2CC1C(C(=O)OCC1CC3CCC1C3)C2C(=O)OCC1CC2CCC1C2 (repeat unit)
2. *c1ccc(-c2nc3cc(C)ccc3o2)c(*)c1 (repeat unit)
3. *c1ccc(-c2ccc(-n3c(-c4ccc(Oc5ccc(C(=O)c6cccc(C(=O)c7ccc(Oc8ccc(-c9nc%10ccccc%10n9*)cc8)cc7)c6)cc5)cc4)nc4ccccc43)cc2)cc1 (repeat unit)
4. *C(=O)c1ccc2c(c1)C(=O)N(c1cccc(C(=O)Nc3ccc(N4C(=O)c5ccc(*)cc5C4=O)cc3)c1)C2=O (repeat unit)
5. *c1ccc(CCc2ccccc2N2C(=O)C(=O)N(c3ccc(Cc4ccc(N5C(=O)C(=O)N(*)C5=O)cc4)cc3)C2=O)cc1 (repeat unit)
6. *C(=O)Nc1ccc(Oc2ccc(C(C)(C)c3ccc(Oc4ccc(NC(=O)c5ccc6c(c5)C(=O)N(c5ccc(Oc7cccc(N8C(=O)c9ccc(*)cc9C8=O)c7)cc5)C6=O)cc4)cc3)cc2)cc1 (repeat unit)

[320.00, 221.00, 244.00, 308.00, 198.00, 207.00]

* * *

ENDPOINT_NAME: glass transition temperature (°C)
Numbers only, in °C.

*C(=O)Nc1ccc(NC(=O)Nc2ccc(NC(=O)c3ccc4c(c3)C(=O)N(c3ccc(NC(=O)Nc5ccc(N6C(=O)c7ccc(*)cc7C6=O)cc5)cc3)C4=O)cc2)cc1 (repeat unit) : 208.00
*Nc1ccc(C(=O)c2ccc(C(=O)c3ccc(Nc4ccc5c(c4)c4cc(*)ccc4n5CC(CC)CCCC)cc3)cc2)cc1 (repeat unit) : 213.00
*C(=O)OCCCSCCCCSCCCOC(=O)c1ccc(N2C(=O)c3ccc(*)cc3C2=O)cc1 (repeat unit) : 39.00
*Oc1ccc(C(C)(C)c2ccc(Oc3ccc(C(=O)c4c(C(=O)c5ccc(*)cc5)c(-c5ccc(F)cc5)c(-c5ccc(F)cc5)c(-c5ccc(F)cc5)c4-c4ccc(F)cc4)cc3)cc2)cc1 (repeat unit) : 252.00
*Cc1ccccc1CN(CC)c1ccc(/C=C/c2ccc(/C=C(\C#N)C(=O)NC3CCCCC3NC(=O)/C(C#N)=C/c3ccc(/C=C/c4ccc(N(*)CC)cc4)cc3)cc2)cc1 (repeat unit) : 201.00

Hey, quick one: what's glass transition temperature for each of these?
1. *C1CCCC(S(*)(=O)=O)C1 (repeat unit)
2. *CCOCCOCCOc1ccc(/C=C/c2ccc(/C=C/c3ccc(O*)c4ccccc34)cc2)c2ccccc12 (repeat unit)

[108.00, 83.50]

These data points were gathered from the PolyMetriX glass transition set.
